Test system: MALME-3M melanoma
MEASUREMENT_DESCRIPTION: NCI tumour cell line growth inhibition, 48 h
READOUT_TYPE: TGI (µM)
Hi! Could you send only the number? It should be in µM, unit omitted.

query: Check the records and state TGI for O=[N+]([O-])C(=C(Nc1ccccc1)Nc1ccccc1)C(Cl)=C(Cl)Cl
result: 41.9

query: Dear colleague, please send me the reported TGI for O=C1CCC2(c3ccc(Cl)cc3)Nc3cc(Cl)ccc3N12 (stereo unspecified) when you can.
result: 24.5

query: Fill in TGI for record Nc1ncn([C@@H]2O[C@H](CO)[C@@H](O)[C@H]2O)c(=O)n1
result: 25.3

query: For the compound Cc1nc(N)sc1N=Nc1ccccc1Br , give its measured TGI value.
result: 61

query: For the compound Cc1ccc(C2=CC(=O)OC(C[P+](c3ccccc3)(c3ccccc3)c3ccccc3)(c3ccccc3)O2)cc1 (stereo unspecified) , give its reported TGI.
result: 30.5

query: Give the value of TGI reported for the following: Cc1nn(-c2ccccc2)c2c1C(c1cc3ccccc3nc1Cl)NC(=O)N2 (stereo unspecified)
result: 51.8

query: Return reported TGI. Input compound: CNCCOC(=O)/C=C1\CC[C@H]2[C@@H]([C@@H](O)C(=O)[C@@H]3[C@]2(C)CC[C@H](O)[C@]3(C)C(=O)OC)[C@H]1C
result: 1.42

query: Answer with the recorded TGI of O=C1N=C2Sc3ccc4ccccc4c3N2C1=O only.
result: 47.9

query: Supply recorded TGI for Cc1ccc(C)c(NC(=O)c2cccc([N+](=O)[O-])c2O)c1 here.
result: 81.6

---

For each of the compounds below, state its TGI.
Test system: NCI-H522 lung
MEASUREMENT_DESCRIPTION: NCI tumour cell line growth inhibition, 48 h
Give the quantity in µM, number only.

query: Tell me measured TGI for CC1=Cc2cccc(C)c2C(=O)C1=O please.
result: 9.87

query: Return reported TGI. Input compound: NC(N)=N/N=C/c1c(Cl)cccc1Cl
result: 77.2

query: Find the measured TGI of O=C(NC[C@H](O)CN1CCc2ccccc2C1)c1cc(NC2COC2)ncn1 and report it.
result: 68.3

query: Give a short answer stating reported TGI for Cc1nc(Nc2cccnc2)sc1C(=O)/C=C/c1ccc(F)cc1 .
result: 5.11

query: For the compound CCOc1cc(/C=C2/C(C)=NN(c3cccc(Cl)c3)/C2=N/c2nc3ccccc3s2)ccc1O , give its reported TGI.
result: 52.7

query: Determine from records and report TGI for C/C(=N\N=C1/C(=O)OC(c2ccccc2)=C1C(=O)c1ccccc1)c1ccc([N+](=O)[O-])cc1
result: 83.5

query: Return TGI (reported value) for this compound: O=[N+]([O-])C(=C(Nc1ccccc1)Nc1ccccc1)C(Cl)=C(Cl)Cl
result: 39.6

query: Determine its reported TGI: COc1ccc(C(=O)Nc2ccc(O)c(=O)cc2)cc1
result: 63.1

query: Answer with reported TGI of CCN1CCN(c2cc(C)c3cc(NC(=O)c4ccc(OC)c(OC)c4)ccc3n2)CC1
result: 16.9

query: Answer with reported TGI of CNCCOC(=O)/C=C1\CC[C@H]2[C@@H]([C@@H](O)C(=O)[C@@H]3[C@]2(C)CC[C@H](O)[C@]3(C)C(=O)OC)[C@H]1C
result: 0.813

query: Supply reported TGI belonging to this compound: Nc1ncn([C@@H]2O[C@H](CO)[C@@H](O)[C@H]2O)c(=O)n1
result: 5.84

query: For the compound COc1ccc(-c2nnc3n(C)c(=O)c4ccccc4n23)cc1N , report TGI.
result: 42.6

query: For the compound O=c1oc2ccc(-c3ccc(F)cc3F)cc2c(=O)n1-c1cccc(C(F)(F)F)c1 , give its reported TGI.
result: 5.61

query: Given COc1ccc(-c2nc(SCC(=O)NNC(=S)Nc3ccccc3)[nH]c2-c2ccc(OC)cc2)cc1 , respond with its TGI.
result: 42.4

query: Fill in TGI for record COC1=CC(=O)c2c(c(-c3nc(C)cs3)cn2C)C1=O
result: 7.26

query: For OC[C@H]1O[C@@H]2O[C@@](COCc3ccccc3)([C@H](OCc3ccccc3)[C@H]2O)[C@@H]1OCc1ccccc1 , write its TGI.
result: 31.6

query: Name the recorded TGI of the compound listed here: Cc1ccc2nc(/C(=C/c3ccc(/C=C(\NC(=O)c4ccccc4)c4nc5ccc(C)cc5[nH]4)c(C)c3)NC(=O)c3ccccc3)[nH]c2c1
result: 42.6

query: State, in one line, measured TGI of O=C(/C(=C/c1ccc(Cl)cc1)c1ccccc1)c1ccccc1
result: 34.7

query: Give reported TGI value for O=c1c(F)cn(Cc2ccc(C34CC5CC(CC(C5)C3)C4)c(O)c2)c(=O)n1Cc1ccc(C23CC4CC(CC(C4)C2)C3)c(O)c1
result: 32.9

query: For the compound COC(=O)[C@]12CC[C@@H](C)[C@H](C)[C@@H]1C1=CC[C@@H]3[C@@]4(C)C[C@@H](O)[C@H](O)[C@@](C)(CO)C4=CC[C@@]3(C)[C@]1(C)CC2 , give its measured TGI value.
result: 33.6

query: Complete the entry with TGI for C[n+]1c(/C=C/c2c(O)ccc3ccccc23)ccc2ccccc21
result: 10.2

query: Find the measured TGI of CCOC(=O)c1nc2c(OC)nn(O)cc-2c1[N+](=O)[O-] and report it.
result: 36.9

---

Please go through the items and note down their TGI.
Tested on: NCI/ADR-RES ovarian
MEASUREMENT_DESCRIPTION: NCI tumour cell line growth inhibition, 48 h

query: Look up NCI/ADR-RES ovarian data: TGI of COc1cc(Cl)cc(-c2nn(-c3cccc(NC(=O)c4ccc(N5CCOCC5)c(C(F)(F)F)c4)c3)cc2-c2ccncc2)c1 , then report it.
result: > 100 µM

query: Using NCI/ADR-RES ovarian as the test system, report measured TGI of O=C(/C=C/c1ccc[nH]1)c1ccc(-n2ccc(C(F)(F)F)n2)cc1 .
result: > 100 µM

query: Under NCI/ADR-RES ovarian: report TGI of O=P(O)(O)C(N=C(Nc1ccccc1)Nc1ccccc1)P(=O)(O)O .
result: > 100 µM

query: // fetch TGI; item: O=C(c1ccco1)c1c(C(F)(F)F)nc2ccc(Cl)cc2[n+]1[O-] ; system: NCI/ADR-RES ovarian
result: > 100 µM

query: Jot down TGI (NCI/ADR-RES ovarian) of C/C(=N\N=C1/C(=O)OC(c2ccccc2)=C1C(=O)c1ccccc1)c1ccc([N+](=O)[O-])cc1 .
result: > 100 µM

query: Report value only: TGI, NCI/ADR-RES ovarian, O=c1oc2cc(O)ccc2c(O)c1C(c1ccccc1)c1c(O)c2ccc(O)cc2oc1=O
result: > 100 µM

query: Lab note: NCI/ADR-RES ovarian assay, enter TGI for CCC[CH2][Sn]([CH2]CCC)([O]C(=O)c1ccc(OC)c(OC)c1OC)[O][Sn]([CH2]CCC)([CH2]CCC)[O]C(=O)c1ccc(OC)c(OC)c1OC here
result: 2.14 µM

query: Would you please give the reported TGI of CC1(C)CC(=O)C(C(CC(c2ccccc2)c2cc3c(cc2O)OCO3)C2=C(O)CC(C)(C)CC2=O)=C(O)C1 (stereo not drawn) with NCI/ADR-RES ovarian?
result: > 10 µM

---

Test system: NCI-H226 lung
MEASUREMENT_DESCRIPTION: NCI tumour cell line growth inhibition, 48 h
READOUT_TYPE: TGI (µM)
// units = µM; emit number, no label

query: Quote TGI reported for C=C1CC(C#N)(C#N)[C@H]2C3CCCC3C[C@@H]12 (some centres undefined) (tested in a mixture with another compound) please.
result: 61.9

query: Indicate the recorded TGI value for this molecule: CCCC(=O)Nc1cn(COC)c(C(=O)N2C[C@@H]3C[C@]34C2=CC(=O)c2[nH]cc(C)c24)n1
result: 34.1

query: Output measured TGI for this item: COc1ccc(C2c3cn[nH]c3CC3CCCCC32)cc1 (centres undefined)
result: 36.9

query: Check the records and state TGI for CCC[CH2][Sn]([CH2]CCC)([O]C(=O)c1ccc(OC)c(OC)c1OC)[O][Sn]([CH2]CCC)([CH2]CCC)[O]C(=O)c1ccc(OC)c(OC)c1OC
result: 0.89

query: Name the recorded TGI of the molecule listed here: C=CCCCCC1CCC2CCC(CCCCC=C)N12 (centres undefined)
result: 34.1

---

System: RXF 393 renal
MEASUREMENT_DESCRIPTION: NCI tumour cell line growth inhibition, 48 h
Would you mind telling me the reported TGI of each entry?

query: Please supply the value of reported TGI for the item Cc1c2cc[n+](C)c(C)c2cc2c1[nH]c1ccccc12
result: > 100 µM

query: Quickly give me recorded TGI for O=[N+]([O-])C(=C(Nc1ccccc1)Nc1ccccc1)C(Cl)=C(Cl)Cl
result: 31.8 µM

query: Supply reported TGI belonging to this compound: Cc1ccccc1C(=O)c1cc(O)ccc1O
result: > 100 µM

query: Query TGI for COc1cc(OC)cc(C(=O)CC(=O)c2cc(OC)cc(OC)c2)c1
result: > 100 µM

query: State its TGI for this compound: O=c1oc2ccc(-c3ccc(F)cc3F)cc2c(=O)n1-c1cccc(C(F)(F)F)c1
result: 4.14 µM

query: Recall and state the measured TGI for CCOC(=O)C1S/C(=N\C(=N)N[N+](=O)[O-])N=C1C (configuration not stated) .
result: > 100 µM

query: Kindly indicate its recorded TGI. Item: CCCCCCCCCCCCCCCC(=O)OCCOCCOCCOCc1ccccc1
result: > 100 µM

query: Give TGI for COC(=O)C(Cc1ccc2c(c1)CCC2)Cc1ccc2c(c1)CCC2
result: > 100 µM

query: Entry CSc1nc(SC)c2c(C#N)[nH]nc2n1 needs its TGI filled in; supply it.
result: > 100 µM

query: Determine its reported TGI: COc1ccc(C2OC(c3ccncc3)=NN2C)cc1F (configuration not stated)
result: > 100 µM

query: Given O=P(O)(O)C(N=C(Nc1ccccc1)Nc1ccccc1)P(=O)(O)O , respond with its TGI.
result: > 100 µM

query: Please give the documented TGI of COc1ccc(-c2nc(SCC(=O)NNC(=S)Nc3ccccc3)[nH]c2-c2ccc(OC)cc2)cc1
result: 43.9 µM

query: Read the entry CC1=CCC([C@@](C)(O)CCCC(C)(C)N=C=S)CC1 (some centres not stated) and write its reported TGI.
result: 29.6 µM

query: Indicate its recorded TGI; the compound in question is O=C(/C=C/c1ccccc1)Oc1ccc(C(=O)/C=C/c2ccccc2)cc1
result: > 60.6 µM

query: Entry CC(=O)Nc1ccc(-c2csc(Nc3cccc(-c4csc(C)n4)c3)n2)cc1 needs its TGI filled in; supply it.
result: > 12.9 µM

query: Please indicate TGI recorded for C/C(CC(=O)Nc1ccc(C)c(C)c1)=N\N(c1ccccc1)c1ccccc1
result: > 100 µM

query: In one line, give reported TGI of the entry C=C1CC(C#N)(C#N)[C@H]2C3CCCC3C[C@@H]12 (some centres not stated) (tested in a mixture with another compound) .
result: 41.7 µM

query: Report TGI, nothing else, for this compound: Cc1cc2c(=O)c3ccccc3[nH]c2c(C(N)=O)c1C
result: > 100 µM

query: Provide TGI value for the following compound: COC(=O)C1CCCC2(C1)OCCO2 (configuration not stated)
result: > 100 µM

query: Give the reported TGI for this compound. NCCCN1c2ccccc2Sc2ccc(Cl)cc21
result: > 10 µM

query: Please supply the value of reported TGI for the item Cc1ccc(S(=O)(=O)n2c3c(c4ccccc42)CCN2C[C@H]([C@H](C)Br)CC[C@@H]32)cc1
result: > 100 µM

query: Tell me TGI reported for COc1ccc(C(=O)Nc2ccc(O)c(=O)cc2)cc1
result: 37.3 µM
